Assay: Lightfastness test of thin films
Format: physicochemical
Settings: thin film on glass plate, UV fluorescent lamps 15 W/m^2, 45° C., 10 hours
Answer each item with its documented I^a/I^a0 (absorbance ratio at absorption maximum after/before lightfastness test).
Answers are plain numbers.

Record excerpt, results attached:
molecule="CCCCn1c([O-])c(/C=N/[N-]c2nnnn2-c2ccccc2)c(CCC)c(C#N)c1=O.CCCCn1c([O-])c(/C=N/[N-]c2nnnn2-c2ccccc2)c(CCC)c(C#N)c1=O.CCCCn1c([O-])c(/C=N/[N-]c2nnnn2-c2ccccc2)c(CCC)c(C#N)c1=O.CCCCn1c([O-])c(/C=N/[N-]c2nnnn2-c2ccccc2)c(CCC)c(C#N)c1=O.[Co+3].[Co+3].c1cc2ccc3ccc[n+]4c3c2[n+](c1)CCC4 [Complex Compound (28)]" valuemeasured=0.88
molecule="Cc1c(/C=N/[N-]c2nnnn2-c2ccccc2)c([O-])n(CC(C)C)c(=O)c1C#N.Cc1c(/C=N/[N-]c2nnnn2-c2ccccc2)c([O-])n(CC(C)C)c(=O)c1C#N.[Co+3].c1ccc(-c2nn(-c3ccccc3)[n+](-c3ccccc3)n2)cc1 [Complex Compound (15)]" valuemeasured=0.88

# I^a/I^a0 (absorbance ratio at absorption maximum after/before lightfastness test) (molecule: CCn1c([O-])c(/C=N/[N-]C(=O)c2ccc(C(F)(F)F)cc2)c(C)c(C#N)c1=O.CCn1c([O-])c(/C=N/[N-]C(=O)c2ccc(C(F)(F)F)cc2)c(C)c(C#N)c1=O.CCn1c([O-])c(/C=N/[N-]C(=O)c2ccc(C(F)(F)F)cc2)c(C)c(C#N)c1=O.CCn1c([O-])c(/C=N/[N-]C(=O)c2ccc(C(F)(F)F)cc2)c(C)c(C#N)c1=O.[Co+3].[Co+3].c1cc2ccc3ccc[n+]4c3c2[n+](c1)CCC4 [Complex Compound (10)] ) is 0.99
